- System: SR leukemia
- Measurement Notes: NCI-60 one-dose screen, 48 h (100 = growth as untreated, 0 = no growth, -100 = all killed)
- Test Parameters: 10 µM
Compounds without any hit were thinned out: in the full panel of roughly 83,000, 20% have a hit.
For each record, write down the corresponding growth.
Report the value in % with no unit label.

# query: growth | item CC1CCCC(C(=O)O)C1C(=O)O (centres undefined) | system: SR leukemia
98.9

Short answer please: growth, SR leukemia, entry CC(=O)[C@@]12O[C@](C)(c3ccccc3)O[C@@H]1CC1C3CCC4=CC(=O)CC[C@]4(C)C3CC[C@@]12C (some centres undefined)
32.1

SR leukemia / growth / C=CCN(CC=C)C(=O)[C@H](CC)[C@@H]1CC[C@@H](C)[C@@H]([C@H](C)[C@@H](O)[C@@H](C)C(=O)[C@H](CC)C2O[C@]3(C=CC(=O)[C@]4(CC[C@@](C)([C@H]5CC[C@](O)(CC)[C@H](C)O5)O4)O3)[C@H](C)C[C@@H]2C)O1 (some centres undefined) : value?
49.1

Query growth on SR leukemia for CCCN1CN2C(=O)N3CN(CCC)CN4C(=S)N(C1)C2C34 (centres undefined)
79.3

Form entry - test system: SR leukemia; read-out: growth; compound: COc1ccc(-c2nn(-c3cccc(Cl)c3)cc2-c2nc(N)[nH]c(=O)c2C#N)cc1
19.3

State its growth on SR leukemia: NS(=O)(=O)Oc1ccc2c(ccn2C(=O)C23CC4CC(CC(C4)C2)C3)c1
111

Given the entry COc1ccc(-c2cc(-c3ccc(Cl)cc3)nc(SCCCCCCC(=O)NO)n2)cc1OC , what growth was observed with SR leukemia?
21.3

# returns recorded growth (system: SR leukemia) for O=C(CCCCCCC(=O)Nc1ccccc1)NO
9.82

Record COc1cc2cc(Oc3ccc(NC(=O)c4cccc(C(F)(F)F)c4)cc3)c(C)nc2cc1OC : what is its growth with SR leukemia?
28

# query: growth | item CN(C)CCOc1ccc(-c2nc3sccn3c2-c2ccnc(S(C)(=O)=O)n2)cc1 | system: SR leukemia
109

For the record NC1=NC(c2ccc(Cl)cc2)C2=C(N1)/C(=C/c1ccc(Cl)cc1)CCC2 (centres undefined) , what value of growth is listed for SR leukemia?
20.8

Observed growth on SR leukemia for N=C1S/C(=C/c2ccc(-c3ccc4c(c3)C(=O)NC4=O)o2)C(=O)N1c1ccc(Br)cc1 , please.
25

Param readout = growth; param system = SR leukemia; param query = O=C(CCC(C(=O)c1ccccc1)c1ccccc1)c1ccccc1 (centres undefined) ; response: value
25.5

So what growth did S=C(NCc1ccccc1)NCc1ccccc1 get with SR leukemia?
98.4

Given the entry COc1cc(OC)c2c(=O)c(O)c(-c3ccccc3)oc2c1 , what growth was observed with SR leukemia?
40.1

Form: Entry = COc1cccc(N=Nc2cccc(OC)c2)c1 | System = SR leukemia | growth = ____
92.8

For the record COc1ccc([C@H]2[C@H](C(=O)Nc3cccnc3)c3ccccc3C(=O)N2c2ccccc2)cc1 , what value of growth is listed for SR leukemia?
46.3

What value of growth on SR leukemia does COc1ccc2c(c1)C(=O)/C(=C/c1cccc(OCC(=O)c3ccc([N+](=O)[O-])cc3)c1)CO2 have?
-64.1

Given the entry IC(I)I , what growth was observed with SR leukemia?
122

API: value(readout= growth, system= SR leukemia, query= CCOC(=O)c1cc(C(=O)c2cc(OC)c(OC)c(OC)c2)n2ncc3ccccc3c12 )
23.1

Checklist item: growth tested on SR leukemia, entry Nc1ccccc1NC(=O)c1ccc(CCCC(=O)Nc2ccc(C3CC3N)cc2)cc1 (centres undefined) , value?
31.5

API: value(readout= growth, system= SR leukemia, query= COc1cc(C2C(C#N)=C(N)Oc3cc(O)ccc32)cc(OC)c1OC (centres undefined) )
11.4

# returns recorded growth (system: SR leukemia) for COc1cc2cc(Oc3ccc(NC(=O)c4ccc(Cl)c(C(F)(F)F)c4)cc3)c(C)nc2cc1OC
37.1

What is its growth for SR leukemia? Entry: CCOC(=O)C1=CSC2=NC3=C(CCC/C3=C\c3cc(OC)c(OC)c(OC)c3)C(c3cc(OC)c(OC)c(OC)c3)N12 (centres undefined)
31.2

====

- System: OVCAR-8 ovarian
- Measurement Notes: NCI-60 one-dose screen, 48 h (100 = growth as untreated, 0 = no growth, -100 = all killed)
- Test Parameters: 10 µM
Compounds without any hit were thinned out: in the full panel of roughly 83,000, 20% have a hit.
Labelling field: enter 1 if recorded growth is less than 80%. Enter -1 if it equals or exceeds that cut-off.

Below 80% on growth? Entry IC(I)I
-1

# TODO verify growth < 80% strictly for this compound: O[C@@H]1CO[C@H]2[C@@H]1OC[C@@H]2O
-1

State whether 80% exceeds growth recorded for CNC(=O)c1c(I)c(NC(C)=O)c(I)c(C(=O)O)c1I .
-1

Quick check: does CCN(CC)CCCC(Nc1c2ccc(Cl)cc2nc2ccc(OC)cc12)c1ccc(F)cc1 (centres undefined) have growth under 80%?
1

Strictly below 80% in growth? O=C(CCCCC(=O)Oc1c(Cl)cc(Cl)cc1[N+](=O)[O-])Oc1c(Cl)cc(Cl)cc1[N+](=O)[O-]
-1

Item COC(=O)c1c[nH]c2cc(OC(C)C)c(OC(C)C)cc2c1=O : growth beneath 80%, strictly?
1

For this compound, is growth lower than 80%? CCOC(=O)C1=CSC2=NC3=C(CCC/C3=C\c3ccc(Cl)cc3)C(c3ccc(Cl)cc3)N12 (centres undefined)
-1

Determine whether this compound shows growth lower than 80% (ties excluded): CN1CCN(CCCn2c(=O)c3sc4ncccc4c3n3nnc(-c4ccccc4)c23)CC1
1

Input COC(=O)c1cc2oc(/C=C3/SC(=S)N(N)C3=O)cc2n1Cc1ccccc1 ; condition: growth strictly below 80%. Does it hold?
1

Is 80% strictly greater than the compound's reported growth? compound: CC(=O)[C@@]12O[C@](C)(c3ccccc3)O[C@@H]1CC1C3CCC4=CC(=O)CC[C@]4(C)C3CC[C@@]12C (some centres undefined)
-1

# strict comparison: is reported growth < 80%? input = COc1cc(-c2ccc[nH]2)[nH]c1/C=C1\N=C(C)C(C(=O)NC(C)C)=C1C
1

A record lists CN(C)CCCOc1ccc(OCCCN(C)C)c2c1C(=O)c1ccccc1C2=O . Is its growth below 80%?
1

Consider the compound Nc1cc(Br)c(-c2nn3c(CCC(=O)c4nc5ccccc5[nH]4)nnc3s2)c(Br)c1 . Is its growth strictly less than 80%?
-1

Would you kindly verify if growth of Clc1ccc(/C=C2\CCCC3C2=Nc2ccccc2NC3c2ccc(Cl)cc2)cc1 (centres undefined) is strictly less than 80%?
1

====

- Tested on: HCC-2998 colon
- Measurement Notes: NCI-60 one-dose screen, 48 h (100 = growth as untreated, 0 = no growth, -100 = all killed)
- Test Parameters: 10 µM
Compounds without any hit were thinned out: in the full panel of roughly 83,000, 20% have a hit.
Give measured growth for each item. Keep answers brief.
Lab book: enter the figure in %, no units written.

Entry under review: COc1ccc(Cl)cc1Nc1nc(C(F)(F)F)ccc1C(=O)N/N=C/c1ccc(Cl)cc1 . Reported growth?
59.4

Name the recorded growth for C=CCn1c(SCC(=O)Nc2ccc(C(=O)/C=C/c3ccc(Cl)cc3)cc2)nnc1-c1cc(-c2ccccc2)nc2ccccc12 .
87.4

Request the reported growth associated with N#CC1=CC2CN(Cc3ccccc3)C1C1C(=O)N(c3ccccc3)C(=O)C21 (stereo not drawn)
92.1

====

Kindly supply the reported growth values for the records listed here.
- Tested on: OVCAR-8 ovarian
- Measurement Notes: NCI-60 one-dose screen, 48 h (100 = growth as untreated, 0 = no growth, -100 = all killed)
- Test Parameters: 10 µM
This is part of a sample that, as a whole, favours compounds with a hit. Of some 83,000 tested, about 20% had one in any assay. The source made the active and inactive calls. Rule for the calls: active = growth percent below 10; inactive = the rest.

Please tell me: growth of CCCCCOC(=O)Nc1nc(=O)n(C2O[C@H](C)[C@@H](O)[C@H]2O)cc1F (some centres undefined) , system OVCAR-8 ovarian?
92.3% (inactive)

# query: growth | item S=C(NCc1ccccc1)NCc1ccccc1 | system: OVCAR-8 ovarian
94.7% (inactive)

Given the entry CCn1cc(CNc2ccc(C(=O)Nc3ccc4ccccc4c3)cc2)c(C)n1 , what growth was observed with OVCAR-8 ovarian?
45% (inactive)

I'm curious: which growth was measured for C=CCn1c(SCC(=O)Nc2ccc(C(=O)/C=C/c3ccc(OC)cc3)cc2)nnc1-c1ccc(OC)c(OC)c1 tested on OVCAR-8 ovarian?
79.8% (inactive)

Lab request: please report growth under test system OVCAR-8 ovarian for Cc1c2c(nn1C(=O)c1nn(-c3ccc(Cl)cc3)cc1O)-c1ccccc1CC2
6.41% (active)

Find the measured growth: item COc1cc(-c2csc(NC(=O)Nc3cc(C(F)(F)F)cc(C(F)(F)F)c3)n2)cc(OC)c1OC , target or system OVCAR-8 ovarian.
19.4% (inactive)

What growth appears in the records for this molecule with OVCAR-8 ovarian? COc1cc(/C=C/c2cc(/C=C/c3ccc(O)c(OC)c3)n(C(=O)Nc3ccc(C)cc3)n2)ccc1O
-2.98% (active)

Kindly state the measured growth obtained for COc1ccc2nc3cc(Cl)ccc3c(Nc3cc(CN4CCCC4)c(O)c(CN4CCCC4)c3)c2n1 with OVCAR-8 ovarian.
10.5% (inactive)

Please provide the recorded growth for CN(C)CCN(Cc1ccccc1)c1ccc2ccccc2n1 , tested on OVCAR-8 ovarian.
102% (inactive)

// fetch OVCAR-8 ovarian growth for Oc1ccc(/C=N/N=C2c3ccccc3-c3ccccc32)c(O)c1
84.5% (inactive)

Can you look up growth on OVCAR-8 ovarian for CC(=O)N[C@H](C(=O)N[C@@H](CCCNC(=N)N)C(=O)N[C@@H](CCCCN)C(=O)N[C@@H](CCCNC(=N)N)C(=O)N[C@]1(C)CCC/C=C\CCC[C@@](C)(C(=O)N[C@@H](CC(C)C)C(=O)N[C@@H](CC(C)C)C(=O)N[C@@H](CCC(N)=O)C(=O)N[C@@H](CCC(=O)O)C(=O)N[C@@H](CCCNC(=N)N)C(=O)N[C@@H](CCC(=O)O)C(=O)N[C@@H](CC(C)C)C(=O)N[C@H](C(=O)N[C@@H](CCC(=O)O)C(N)=O)C(C)C)NC(=O)[C@H](CCCNC(=N)N)NC(=O)[C@H](CC(C)C)NC1=O)C(C)C ?
104% (inactive)

Short answer please: growth, OVCAR-8 ovarian, entry Nc1nc(Cn2c(-c3nonc3N)nc3ccccc32)nc(N2CCCCC2)n1
93.2% (inactive)

Form: Entry = CN(C)c1ncnc2c1nnn2C1OC(CO)C(O)C1O (centres undefined) | System = OVCAR-8 ovarian | growth = ____
8.85% (active)

Identify the measured growth of O=C(O)Cc1ccc(O)c(O)c1 for OVCAR-8 ovarian.
104% (inactive)

growth of O=S(=O)(O)c1cccc(Nc2ccc3ccccc3c2)c1 on OVCAR-8 ovarian?
92.4% (inactive)

Lab request: please report growth under test system OVCAR-8 ovarian for COc1cc2c(cc1NC(=O)C(Cl)Cl)-c1ccc(NC(=O)C(Cl)Cl)cc1C2
-22.8% (active)

Reported growth for OVCAR-8 ovarian, given COc1ccc(NC(=O)C2CC3C=CC2C3)c([N+](=O)[O-])c1 (centres undefined) ?
101% (inactive)

Return growth measured with OVCAR-8 ovarian given this molecule: CO[C@H]1CC(O[C@@H]2/C(C)=C/C[C@@H]3C[C@@H](C[C@]4(C=C[C@H](C)[C@@H](C5CCCCC5)O4)O3)OC(=O)[C@@H]3C=C(C)[C@@H](O)[C@H]4OC/C(=C\C=C\[C@@H]2C)[C@]43O)O[C@@H](C)C1O[C@H]1C[C@H](OC)[C@@H](O)[C@H](C)O1 (some centres undefined)
-25.9% (active)

Which measured growth belongs to Cc1ccc(-n2c(C)nn3c(=O)c4c5c(sc4nc23)CN(C)CC5)cc1 , tested on OVCAR-8 ovarian?
103% (inactive)

Fill in the recorded growth for this molecule, with OVCAR-8 ovarian as test system: COc1cc(C(=O)n2nc(-c3cc(OC)c(OC)c(OC)c3)nc2N)cc(OC)c1OC
102% (inactive)

What measured growth is associated with Brc1ccc2c(c1)-c1ccccc1C1=NCCN12 on OVCAR-8 ovarian?
-11.3% (active)

What value of growth on OVCAR-8 ovarian does COc1ccc(Cl)cc1Nc1nc(C(F)(F)F)ccc1C(=O)N/N=C/c1cc(OC)c(OC)c(OC)c1 have?
53.2% (inactive)

# returns recorded growth (system: OVCAR-8 ovarian) for C[C@]12CC[C@@H]3c4ccc(O)cc4CC[C@H]3[C@@H]1CC[C@@H]2NS(=O)(=O)c1ccc(C(F)(F)F)cc1
57% (inactive)

Which growth is reported with OVCAR-8 ovarian for this entry: COc1ccc2c(c1)C(=O)/C(=C/c1cccc(OCC(=O)c3ccc([N+](=O)[O-])cc3)c1)CO2 ?
2.15% (active)

Lab request: please report growth under test system OVCAR-8 ovarian for Cc1cc(Br)nnc1Br
115% (inactive)

# value lookup — system OVCAR-8 ovarian, readout growth, item c1cnc2[nH]cc(-c3nc(-c4ccsc4)cs3)c2c1
96.9% (inactive)

Lab note: need growth with OVCAR-8 ovarian for entry COc1cc2cc(Oc3ccc(NC(=O)c4ccccc4)cc3)c(C)nc2cc1OC , please look it up.
22.7% (inactive)

Find growth (OVCAR-8 ovarian) for the entry CN(C)CCOc1ccc(-c2nc3sccn3c2-c2ccnc(S(C)(=O)=O)n2)cc1
106% (inactive)

State its growth on OVCAR-8 ovarian: CC(C)=CCC/C(C)=C/CC/C(C)=C/CC/C=C(\C)CC/C=C(\C)CCC(=O)Nc1ccn(C2OC(CO)C(O)C2(F)F)c(=O)n1 (centres undefined)
19.2% (inactive)

Data credit: PubChem BioAssay (NCI)
